Taken from patent US6949542B2.

Property Measured: melting point (°C)
Write the answer as a number in °C, unit excluded.

Input line: Respond only with melting point recorded for `COc1ccc(-c2cccc(C3=Nc4ccc(-c5ccccc5F)cc4NC(=O)C3)c2)nn1`
Output line: 220

Input line: Report measured melting point; entry is `Cc1cc2c(cc1C(F)(F)F)NC(=O)CC(c1cccc(-c3ccc(C(C)C)nc3)c1)=N2`
Output line: 199

Input line: Determine from records and report melting point for `Cc1cc(-c2cccc(C3=Nc4cc(Cl)c(Cl)cc4NC(=O)C3)c2)cc(CO)n1`
Output line: 234

Input line: Return value of melting point for input `Cc1cc(-c2cccc(C3=Nc4cc(N(C)C(C)C)c(C(F)(F)F)cc4NC(=O)C3)c2)cc(C)n1` , no commentary.
Output line: 232

Input line: Quote melting point reported for `Cc1ccc(-c2cccc(C3=Nc4cc(C)c(C(F)(F)F)cc4NC(=O)C3)c2)cn1` please.
Output line: 235

Next:
Input line: Using known records, supply melting point for `CCc1ccc(-c2cccc(C3=Nc4ccc(C(F)(F)F)cc4NC(=O)C3)c2)cn1`
Output line: 211

Input line: Given the molecule `Cc1cc2c(cc1Cl)NC(=O)CC(c1cccc(-c3ccnc(C(C)C)c3)c1)=N2` , write its reported melting point.
Output line: 196

Input line: Fill in melting point for record `COc1ccc(-c2cccc(C3=Nc4cc(OCC(F)(F)F)ccc4NC(=O)C3)c2)cn1`
Output line: 186

---

Experimental Target: rat mGlu2 receptor (Rattus norvegicus, UniProt P31421)
Construct: expressed in transfected cells; vector pcD1mGR2
Sequence (P31421 19-872): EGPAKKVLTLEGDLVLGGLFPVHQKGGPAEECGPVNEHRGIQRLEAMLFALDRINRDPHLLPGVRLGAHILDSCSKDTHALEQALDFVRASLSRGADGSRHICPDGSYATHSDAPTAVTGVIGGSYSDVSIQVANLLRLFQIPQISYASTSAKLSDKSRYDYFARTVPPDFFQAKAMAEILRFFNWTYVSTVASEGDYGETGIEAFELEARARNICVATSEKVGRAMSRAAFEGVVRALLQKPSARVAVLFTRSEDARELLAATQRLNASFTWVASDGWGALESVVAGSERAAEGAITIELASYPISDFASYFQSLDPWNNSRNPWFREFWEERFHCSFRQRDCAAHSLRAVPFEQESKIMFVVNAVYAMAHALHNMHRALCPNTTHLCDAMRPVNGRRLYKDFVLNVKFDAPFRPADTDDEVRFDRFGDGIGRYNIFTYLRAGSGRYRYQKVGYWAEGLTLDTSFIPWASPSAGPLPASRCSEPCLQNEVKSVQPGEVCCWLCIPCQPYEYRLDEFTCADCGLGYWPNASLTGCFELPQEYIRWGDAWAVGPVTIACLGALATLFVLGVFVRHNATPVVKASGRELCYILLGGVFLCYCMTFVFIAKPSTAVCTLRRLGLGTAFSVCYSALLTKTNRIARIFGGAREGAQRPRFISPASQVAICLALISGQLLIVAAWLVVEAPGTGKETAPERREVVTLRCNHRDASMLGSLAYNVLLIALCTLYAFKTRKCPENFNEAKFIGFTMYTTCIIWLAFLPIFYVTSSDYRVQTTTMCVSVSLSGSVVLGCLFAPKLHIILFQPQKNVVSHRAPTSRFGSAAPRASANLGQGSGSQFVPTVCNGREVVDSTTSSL
Test Name: [3H]-LY354740 binding on mGlu2 transfected CHO cell membranes
Property Measured: pKi
Reminder that pKi is minus the log10 of a molar concentration.

Input line: Tell us which pKi value is on record for `O=C1CC(c2cccc(-c3cncnc3)c2)=Nc2cc(Cl)c(Cl)cc2N1`
Output line: 7.97

Alright, here's another compound for you.
Input line: Supply reported pKi belonging to this compound: `Cc1cc2c(cc1C(F)(F)F)NC(=O)CC(c1cccc(-c3ccnc(N4CCOCC4)c3)c1)=N2`
Output line: 7.84

---

Listed next: entries and their corresponding melting point.
Could you give me the number in °C? Just the number is fine.

Worked cases, answers included:
Input line: Find the measured melting point of `CC(C)c1cc(-c2cccc(C3=Nc4cc(Cl)c(C(F)(F)F)cc4NC(=O)C3)c2)ccn1` and report it.
Output line: 200

Input line: Name the recorded melting point of the item `Cc1cc(-c2cccc(C3=Nc4cc(C)c(Cl)cc4NC(=O)C3)c2)cc(CO)n1` in your answer.
Output line: 202

Input line: Please indicate melting point recorded for `Cc1cc(-c2cccc(C3=Nc4cc(C)c(C(F)(F)F)cc4NC(=O)C3)c2)cc(CO)n1`
Output line: 200

Now consider a different compound.
Input line: Item `CCc1ncccc1-c1cccc(C2=Nc3cc(C)c(C(F)(F)F)cc3NC(=O)C2)c1` : provide melting point
Output line: 213

---

Experimental Target: rat mGlu2 receptor (Rattus norvegicus)
Construct: expressed in transfected cells; vector pcD1mGR2
Test Name: [3H]-LY354740 binding on mGlu2 transfected CHO cell membranes
Condition Details: inhibition of 10 nM [3H]-LY354740 binding, mGlu2 transfected CHO cell membranes, room temperature, 1 hour; read-out: Ki mGlu2
Cut-off 6 nM on Ki: below means True, at or above means False.

Input line: Decide: Ki of `Cc1cc2c(cc1C(F)(F)F)N=C(c1cccc(-c3cccnc3)c1)CC(=O)N2` strictly below 6 nM?
Output line: True

Input line: For `COc1ccc(-c2cccc(C3=Nc4ccc(-c5ccccc5F)cc4NC(=O)C3)c2)nn1` , is the recorded Ki below the cut-off of 6 nM?
Output line: False

Input line: Would you kindly verify if Ki of `CCc1cnc(C)cc1-c1cccc(C2=Nc3cc(C)c(Cl)cc3NC(=O)C2)c1` is strictly less than 6 nM?
Output line: True

Input line: Here's an entry: `Cc1nccc(-c2cccc(C3=Nc4cc(N(C)C)c(C(F)(F)F)cc4NC(=O)C3)c2)n1` . Is its Ki below 6 nM?
Output line: False

Input line: A record lists `Cc1cc(-c2cccc(C3=Nc4cc(C)c(Cl)cc4NC(=O)C3)c2)nc(N2CCOCC2)n1` . Is its Ki below 6 nM?
Output line: False

Let's switch to this compound now.
Input line: API: query returns whether the compound falls strictly under 6 nM in Ki. Query: `Cc1cc2c(cc1Cl)NC(=O)CC(c1cccc(-c3ccnnc3)c1)=N2`
Output line: False

---

Property Measured: melting point

Input line: Complete the entry with melting point for `CCOc1cc2c(cc1C(F)(F)F)NC(=O)CC(c1cccc(-c3cnccc3C)c1)=N2`
Output line: 213 to 214 °C

Continuing:
Input line: Entry `C=Cc1cc2c(cc1C(F)(F)F)NC(=O)CC(c1cccc(-c3cccnc3)c1)=N2` needs its melting point filled in; supply it.
Output line: 208 to 209 °C

Input line: Please give the documented melting point of `CCOc1cc2c(cc1C(F)(F)F)NC(=O)CC(c1cccc(-c3cnc(C4CC4)cc3C)c1)=N2`
Output line: 202 °C

Input line: For the molecule `COc1ccc(-c2cccc(C3=Nc4cc(OCC(F)(F)F)c(C(F)(F)F)cc4NC(=O)C3)c2)cn1` , give its measured melting point value.
Output line: 220 to 225 °C

---

Listed below: melting point values for each entry.
Numeric answer only, unit °C assumed.

The cases that follow already have their melting point on record.
Input line: # return recorded melting point for entry O=C1CC(c2cccc(-c3ccccn3)c2)=Nc2ccc(C#Cc3ccccc3)cc2N1 [Example 164]
Output line: 242

Input line: Provide one value: measured melting point of Cc1cc(-c2cccc(C3=Nc4cc(C)c(Cl)cc4NC(=O)C3)c2)c(C)cn1 [Example 134]
Output line: 208

Input line: Let me know recorded melting point for Cc1cc(-c2cccc(C3=Nc4cc(OCC(F)(F)F)c(C(F)(F)F)cc4NC(=O)C3)c2)c(C)cn1 [Example 138] , thanks.
Output line: 202

Now for the compound whose melting point we want.
Input line: Answer with the recorded melting point of Cc1cc(-c2cccc(C3=Nc4cc(N5CCCC5)c(C(F)(F)F)cc4NC(=O)C3)c2)cc(C)n1 [Example 411] only.
Output line: 233

---

Property Measured: melting point (°C)
Report the figure in °C without appending any unit label.

Some solved entries appear below for comparison.
Input line: # return recorded melting point for input `CCOc1cc2c(cc1C(F)(F)F)NC(=O)CC(c1cccc(-c3cc[n+]([O-])c(C)c3)c1)=N2`
Output line: 227

Input line: Specify reported melting point for the compound shown: `O=C1CC(c2cccc(-c3ccccn3)c2)=Nc2ccc(C#Cc3ccc(F)cc3)cc2N1`
Output line: 249

Input line: Please list melting point recorded for the compound `Cc1cc(C2CC2)ncc1-c1cccc(C2=Nc3cc(OCC(F)(F)F)c(C(F)(F)F)cc3NC(=O)C2)c1`
Output line: 206

Input line: For the compound `CCc1cc(-c2cccc(C3=Nc4cc(OCC(F)(F)F)c(C(F)(F)F)cc4NC(=O)C3)c2)ccn1` , report melting point.
Output line: 232

Input line: Indicate the recorded melting point value for this compound: `O=C1CC(c2cccc(-c3cncnc3)c2)=Nc2ccc(-c3ccccc3F)cc2N1`
Output line: 223

Further cases:
Input line: Identify melting point associated with the compound `CC(C)Cc1cc(-c2cccc(C3=Nc4cc(Cl)c(Cl)cc4NC(=O)C3)c2)ccn1`
Output line: 204

Input line: Please indicate melting point recorded for `Cc1cccc(-c2cccc(C3=Nc4cc(N(C)C)c(C(F)(F)F)cc4NC(=O)C3)c2)n1`
Output line: 195

Input line: Tell me its melting point given `CCCN(C)c1cc2c(cc1C(F)(F)F)NC(=O)CC(c1cccc(-c3cnccn3)c1)=N2` as the entry.
Output line: 201

---

melting point: recorded values
# unit: °C | format: bare number

Sample records with melting point:
Input line: Return value of melting point for input `Cc1ccc(-c2cccc(C3=Nc4cc(OCC(F)(F)F)c(C(F)(F)F)cc4NC(=O)C3)c2)cn1` , no commentary.
Output line: 159

Input line: Please give measured melting point of the following entry: `O=C1CC(c2cccc(-c3cnccn3)c2)=Nc2ccc(-c3ccccc3F)cc2N1`
Output line: 241

Input line: Note down melting point recorded for `Cc1cc(-c2cccc(C3=Nc4cc(C(F)(F)F)c(Cl)cc4NC(=O)C3)c2)cc(C)n1`
Output line: 207

Input line: Answer with the recorded melting point of `CCOc1cc2c(cc1C(F)(F)F)NC(=O)CC(c1cccc(-c3cc(C)nc(CO)c3)c1)=N2` only.
Output line: 225

Continuing:
Input line: Determine from records and report melting point for `O=C1CC(c2cccc(-c3ccccn3)c2)=Nc2cc(OCC(F)(F)F)c(C(F)(F)F)cc2N1`
Output line: 214

---

Lab note: cut-off is 200 °C. Strictly less in melting point is Yes. Exactly 200 °C or more is No.

// below: answered molecules
Input line: In plain terms, does CCCc1cc2c(cc1C(F)(F)F)NC(=O)CC(c1cccc(-c3cc(C)nc(C)c3)c1)=N2 [Example 229] come in under 200 °C for melting point?
Output line: No

Input line: Strictly below 200 °C: is that where melting point of Cc1cc2c(cc1C(F)(F)F)N=C(c1cccc(-c3cccnc3)c1)CC(=O)N2 [Example 25] sits?
Output line: No

Input line: Identify whether the molecule Cc1cc2c(cc1Cl)NC(=O)CC(c1cccc(-c3ccc(C(C)C)nc3)c1)=N2 [Example 179] records melting point below 200 °C.
Output line: Yes

Input line: Does this molecule meet the criterion melting point < 200 °C? O=C1CC(c2cccc(-c3cnccn3)c2)=Nc2cc(Cl)c(Cl)cc2N1 [Example 88]
Output line: No

***
Input line: Lab log: compare recorded melting point with 200 °C; is it strictly lower for O=C1CC(c2cccc(-c3cccnc3)c2)=Nc2ccc(OC(F)(F)F)cc2N1 [Example 185] ?
Output line: No

Input line: Dear reviewer, please state whether Cc1cc(-c2cccc(C3=Nc4cc(OCC(F)(F)F)c(C(F)(F)F)cc4NC(=O)C3)c2)ccn1 [Example 114] has melting point strictly beneath 200 °C.
Output line: No

Input line: Given the entry CCc1cc(-c2cccc(C3=Nc4cc(Cl)c(C(F)(F)F)cc4NC(=O)C3)c2)ccn1 [Example 156] , would its reported melting point be below 200 °C?
Output line: No

Input line: Threshold test, melting point < 200 °C: CCOc1cc2c(cc1C(F)(F)F)NC(=O)CC(c1cccc(-c3ccnc(C(F)(F)F)c3)c1)=N2 [Example 269]
Output line: No

Input line: Would you kindly verify if melting point of O=C1CC(c2cccc(-c3ccnc(CN4CCC4)c3)c2)=Nc2cc(OCC(F)(F)F)c(C(F)(F)F)cc2N1 [Example 381] is strictly less than 200 °C?
Output line: Yes

Input line: Is melting point of Cc1cc(-c2cccc(C3=Nc4cc(F)c(F)cc4NC(=O)C3)c2)ccn1 [Example 115] strictly below 200 °C?
Output line: No

Input line: Could you please tell me whether melting point recorded for O=C1CC(c2cccc(-c3cccnc3)c2)=Nc2ccc(F)cc2N1 [Example 7] is less than 200 °C?
Output line: No

Input line: hey, is melting point for Cc1cc(-c2cccc(C3=Nc4cc(Cl)c(C(F)(F)F)cc4NC(=O)C3)c2)cc(CO)n1 [Example 403] lower than 200 °C or not?
Output line: Yes

Input line: Please let me know if CC(C)N(C)c1cc2c(cc1Cl)NC(=O)CC(c1cccc(-c3ccnc(CO)c3)c1)=N2 [Example 367] shows melting point below 200 °C.
Output line: Yes

Input line: Criterion: melting point strictly below 200 °C. Is it met by O=C1CC(c2cccc(-c3cnccn3)c2)=Nc2ccc(C(F)(F)F)cc2N1 [Example 89] ?
Output line: No

Input line: hey, is melting point for O=C1CC(c2cccc(-c3ccnc(C(F)(F)F)c3)c2)=Nc2cc(OCC(F)(F)F)c(C(F)(F)F)cc2N1 [Example 268] lower than 200 °C or not?
Output line: No

Input line: Does the reported melting point of the following molecule sit strictly below 200 °C? Cc1cc(-c2cccc(C3=Nc4cc(N(C)C)c(C(F)(F)F)cc4NC(=O)C3)c2)ccn1 [Example 78]
Output line: No

Input line: Is the reported melting point for Cc1cc2c(cc1C)NC(=O)CC(c1cccc(-c3ccncc3)c1)=N2 [Example 69] strictly below 200 °C?
Output line: No

Input line: Does the reported melting point of CC(C)CNc1cc2c(cc1Cl)NC(=O)CC(c1cccc(-c3cncnc3)c1)=N2 [Example 96] stay below 200 °C?
Output line: No

Input line: Hello, is melting point of the following molecule strictly smaller than 200 °C? Cc1cc2c(cc1Cl)NC(=O)CC(c1cccc(-c3cnccn3)c1)=N2 [Example 86]
Output line: No
